MEASUREMENT_DESCRIPTION: amyloid nucleation score (Sup35N fusion, yeast selection) (log enrichment); library NNK2; higher = more nucleation; inactive = no reads after selection;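 note: zero at mode of non-aggregating sequences after 7 days selection at 30°C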
Assign label 1 whenever amyloid nucleation score does not fall below -0.05; assign label 0 whenever it does.

Use the examples below as a reference point.
YWIRIRIQCFQGSIEQDTER; label 1
SSFLATVSVQCNDRYNSHRS; label 1
LNTTLLTRPVLSSYRGSTAE; label 1
YAFRSYMKFIYFCSDFFSDR; label 0
LQCYPWIYGGSGHPYRFWNL; label 0

hey, is amyloid nucleation score for this one >= -0.05? "WCLMVGFMFMCRYDGNQSDG"
label 1

hey, is amyloid nucleation score for this one >= -0.05? "QLGIGFFGRKWDGHL"
label 1

hey, is amyloid nucleation score for this one >= -0.05? "ALSFYNY"
label 0

hey, is amyloid nucleation score for this one >= -0.05? "SCVCVMSYQLNVWRKHDSCI"
label 1

hey, is amyloid nucleation score for this one >= -0.05? "QYMLLMMC"
label 1

* * *

Reported values of amyloid nucleation score for individual entries
MEASUREMENT_DESCRIPTION: amyloid nucleation score (Sup35N fusion, yeast selection) (log enrichment); library NNK2; higher = more nucleation; inactive = no reads after selection
Just the number, please, no unit attached.

Example entries begin here.
LTLHAVWI; -0.022
IHPRSFRNVCLSSHSEMGG; -0.813

"ESLGDSI" has a reported amyloid nucleation score of -0.352

"AFQITSERLGWKKVNHAVRW" has a reported amyloid nucleation score of 0.432

"NFRPCRVLRFGY" has a reported amyloid nucleation score of 1.03

"ECDYRTLSLNMVLNYCRKGG" has a reported amyloid nucleation score of 5.96

"NISMTTWW" has a reported amyloid nucleation score of 4.71

* * *

MEASUREMENT_DESCRIPTION: amyloid nucleation score (Sup35N fusion, yeast selection) (log enrichment); library NNK3; higher = more nucleation; inactive = no reads after selection
PROPERTY_MEASURED: amyloid nucleation score

LTNCRHSWWEDTTYSMWEVQ; inactive
LDVMTCNRLKVTVDFMCMNA; inactive
HNEHILSQ; inactive
FFNIDVHARVSI; inactive
DVARPCSI; inactive

"SGQNKEQVVWMCTVRLPESS" has a reported amyloid nucleation score of inactive

"ISGIHITSELRRGTPERCSH" has a reported amyloid nucleation score of inactive

"CIVAANHRRCNFLRLGRRLG" has a reported amyloid nucleation score of -0.654

"LVSWSIA" has a reported amyloid nucleation score of inactive

"WTSHPYWSL" has a reported amyloid nucleation score of inactive

"NRRNLSLFECLSSTGVSRVN" has a reported amyloid nucleation score of inactive

"FDIFQGDINLHFLDVNITR" has a reported amyloid nucleation score of 0.397

"GKDKLEGKEGGVSCDGNLRP" has a reported amyloid nucleation score of inactive

* * *

MEASUREMENT_DESCRIPTION: amyloid nucleation score (Sup35N fusion, yeast selection) (log enrichment); library NNK1; higher = more nucleation; inactive = no reads after selection
Assign label 1 whenever amyloid nucleation score does not fall below 0.09; assign label 0 whenever it does.

Use the examples below as a reference point.
YAYYLSDRVCFD; label 1
SPIVGTLFYFMLWNMSAHTR; label 1
AFAVTASAITTVPPYREFVG; label 0
LVIHCDQTHIKVQRDVPRRW; label 1
VQAAGYITLATVALWSTSMQ; label 1

hey, is amyloid nucleation score for this one >= 0.09? "RSQCQAGCELYGFA"
label 0

hey, is amyloid nucleation score for this one >= 0.09? "TYALITADI"
label 1

hey, is amyloid nucleation score for this one >= 0.09? "VNGWARSMGGFLSCNSQRFG"
label 0
